All values here come from ChEMBL document CHEMBL3616400.

# TARGET: Nuclear factor erythroid 2-related factor 2 (Mus musculus)
# Sequence (whole entry): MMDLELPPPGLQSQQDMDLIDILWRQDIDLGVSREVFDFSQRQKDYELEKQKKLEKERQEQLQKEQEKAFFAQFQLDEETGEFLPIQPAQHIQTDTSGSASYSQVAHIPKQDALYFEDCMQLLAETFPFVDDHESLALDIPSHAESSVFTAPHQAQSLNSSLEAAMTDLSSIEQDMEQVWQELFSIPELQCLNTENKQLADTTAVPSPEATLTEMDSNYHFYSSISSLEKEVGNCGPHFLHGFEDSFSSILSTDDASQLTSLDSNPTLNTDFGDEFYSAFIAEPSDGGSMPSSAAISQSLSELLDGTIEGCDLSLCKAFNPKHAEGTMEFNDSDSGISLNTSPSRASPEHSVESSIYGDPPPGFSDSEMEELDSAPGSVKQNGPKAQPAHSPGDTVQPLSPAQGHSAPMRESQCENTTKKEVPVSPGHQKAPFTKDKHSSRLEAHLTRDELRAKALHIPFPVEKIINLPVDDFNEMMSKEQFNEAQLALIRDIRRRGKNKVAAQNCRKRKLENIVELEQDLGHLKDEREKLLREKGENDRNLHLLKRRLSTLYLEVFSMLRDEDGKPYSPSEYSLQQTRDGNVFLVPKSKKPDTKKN
# ASSAY_NOTES: Activation of Nrf2 in mouse Hepa1c1c7 cells assessed as induction of NQO1 production at 10 uM after 24 hrs by MTT colorimetric assay relative to control
# Assay type: cell-based
Catalogue of fold change (FC) readings, one per entry.
OBSERVABLE: fold change (FC)

- SMILES_TEXT: "O=C(O)c1ccc(-c2cn(-c3ccc(C(=O)O)cc3)nn2)cc1"
  OBSERVABLE: "fold change (FC)"
  READOUT_NUMBER: 0.9
- SMILES_TEXT: "NC(=O)c1cccc(-c2cn(-c3ccc([N+](=O)[O-])cc3)nn2)c1"
  OBSERVABLE: "fold change (FC)"
  READOUT_NUMBER: 1.05
- SMILES_TEXT: "NC(=O)c1ccc(-n2cc(-c3cccc([N+](=O)[O-])c3)nn2)cc1"
  OBSERVABLE: "fold change (FC)"
  READOUT_NUMBER: 2.08
- SMILES_TEXT: "NC(=O)c1ccc(-n2cc(-c3ccc(C(=O)O)cc3)nn2)cc1"
  OBSERVABLE: "fold change (FC)"
  READOUT_NUMBER: 0.86
- SMILES_TEXT: "O=C(O)c1cccc(-n2cc(-c3ccc([N+](=O)[O-])cc3)nn2)c1"
  OBSERVABLE: "fold change (FC)"
  READOUT_NUMBER: 0.66
- SMILES_TEXT: "NC(=O)c1ccc(-c2cn(-c3cccc(C(=O)O)c3)nn2)cc1"
  OBSERVABLE: "fold change (FC)"
  READOUT_NUMBER: 0.79
- SMILES_TEXT: "NC(=O)c1ccc(-c2cn(-c3ccc(C(N)=O)cc3)nn2)cc1"
  OBSERVABLE: "fold change (FC)"
  READOUT_NUMBER: 0.98
- SMILES_TEXT: "N#Cc1cccc(-c2cn(-c3cccc(Cl)c3)nn2)c1"
  OBSERVABLE: "fold change (FC)"
  READOUT_NUMBER: 2.39
- SMILES_TEXT: "COc1cccc(-n2cc(-c3cccc([N+](=O)[O-])c3)nn2)c1"
  OBSERVABLE: "fold change (FC)"
  READOUT_NUMBER: 2.56
- SMILES_TEXT: "CSc1cccc(-n2cc(-c3cccc([N+](=O)[O-])c3)nn2)c1"
  OBSERVABLE: "fold change (FC)"
  READOUT_NUMBER: 2.95
- SMILES_TEXT: "Cc1cccc(-n2cc(-c3cccc([N+](=O)[O-])c3)nn2)c1"
  OBSERVABLE: "fold change (FC)"
  READOUT_NUMBER: 2.2

----------
# ASSAY_NOTES: Therapeutic index, ratio of GI50 for mouse Hepa1c1c7 cells to CD for activation of Nrf2 in mouse Hepa1c1c7 cells assessed as concentration required to 2 fold induction of NQO1 production
# Format: cell-based
# EXPERIMENTAL_SETUP: read-out: TI
Catalogue of selectivity ratio readings, one per entry.
OBSERVABLE: selectivity ratio

- MOLECULE: "C[S+]([O-])CCCCN=C=S (configuration not stated) [SULFORAPHANE]"
  OBSERVABLE: "selectivity ratio"
  RESULT: 250
- MOLECULE: "O=[N+]([O-])c1cccc(-c2cn(-c3cccc(I)c3)nn2)c1"
  OBSERVABLE: "selectivity ratio"
  RESULT: "> 1000"

----------
# TARGET: Nuclear factor erythroid 2-related factor 2 (Mus musculus)
# ASSAY_NOTES: Activation of Nrf2 in mouse Hepa1c1c7 cells assessed as induction of NQO1 production at 10 uM after 24 hrs by MTT colorimetric assay relative to control
# Type: cell-based

- SMILES_TEXT: "NC(=O)c1ccc(-c2cn(-c3ccc([N+](=O)[O-])cc3)nn2)cc1"
  fold change (FC): 1.02
- SMILES_TEXT: "NC(=O)c1ccc(-c2cn(-c3ccc(C(=O)O)cc3)nn2)cc1"
  fold change (FC): 0.79
- SMILES_TEXT: "CCOc1cccc(-n2cc(-c3cccc(C#N)c3)nn2)c1"
  fold change (FC): 1.3
- SMILES_TEXT: "O=[N+]([O-])c1ccc(-n2cc(-c3cccc([N+](=O)[O-])c3)nn2)cc1"
  fold change (FC): 3.38
- SMILES_TEXT: "O=C(O)c1cccc(-n2cc(-c3cccc([N+](=O)[O-])c3)nn2)c1"
  fold change (FC): 0.83
- SMILES_TEXT: "O=C(O)c1ccc(-n2cc(-c3cccc(-c4nnn[nH]4)c3)nn2)cc1"
  fold change (FC): 1
- SMILES_TEXT: "N#Cc1cccc(-c2cn(-c3cccc([N+](=O)[O-])c3)nn2)c1"
  fold change (FC): 2.1
- SMILES_TEXT: "Cc1cccc(-n2cc(-c3cccc(C#N)c3)nn2)c1"
  fold change (FC): 1.69
- SMILES_TEXT: "O=[N+]([O-])c1cccc(-c2cn(-c3cccc([N+](=O)[O-])c3)nn2)c1"
  fold change (FC): 2.3
- SMILES_TEXT: "NC(=O)c1ccc(-c2cn(-c3cccc([N+](=O)[O-])c3)nn2)cc1"
  fold change (FC): 1.33

----------
# TARGET: Nuclear factor erythroid 2-related factor 2 (Mus musculus)
# ASSAY_NOTES: Activation of Nrf2 in mouse Hepa1c1c7 cells assessed as concentration required to 2 fold induction of NQO1 production after 24 hrs by MTT colorimetric assay
# Type: cell-based
I'd appreciate it if you marked entries rule met when CD is lower than 1 µM and rule not met when it is not.

- COMPOUND: "CC(C)(C)c1cccc(-n2cc(-c3cccc([N+](=O)[O-])c3)nn2)c1"
  ASSIGNED_CLASS: "rule not met"
- COMPOUND: "COc1cccc(-n2cc(-c3cccc([N+](=O)[O-])c3)nn2)c1"
  ASSIGNED_CLASS: "rule not met"
- COMPOUND: "O=[N+]([O-])c1cccc(-c2cn(-c3cccc(I)c3)nn2)c1"
  ASSIGNED_CLASS: "rule met"
- COMPOUND: "O=[N+]([O-])c1cccc(-c2cn(-c3cccc(Cl)c3)nn2)c1"
  ASSIGNED_CLASS: "rule met"
- COMPOUND: "C[S+]([O-])CCCCN=C=S (stereo unspecified)"
  ASSIGNED_CLASS: "rule met"
- COMPOUND: "Cc1cccc(-n2cc(-c3cccc([N+](=O)[O-])c3)nn2)c1"
  ASSIGNED_CLASS: "rule not met"
- COMPOUND: "Cc1c(-c2cnccn2)ssc1=S"
  ASSIGNED_CLASS: "rule not met"
- COMPOUND: "O=C(O)c1cccc(-n2cc(-c3cccc([N+](=O)[O-])c3)nn2)c1"
  ASSIGNED_CLASS: "rule not met"
- COMPOUND: "CN(C)c1cccc(-n2cc(-c3cccc([N+](=O)[O-])c3)nn2)c1"
  ASSIGNED_CLASS: "rule not met"
- COMPOUND: "O=[N+]([O-])c1cccc(-c2cn(-c3cccc(Br)c3)nn2)c1"
  ASSIGNED_CLASS: "rule not met"
- COMPOUND: "O=[N+]([O-])c1cccc(-c2cn(-c3ccccc3)nn2)c1"
  ASSIGNED_CLASS: "rule not met"

----------
Catalogue of EC50 readings, one per entry.
# TARGET: Keap1/Nrf2 (Homo sapiens, UniProt Q14145)
# Sequence (Q16236 whole entry, the tested form may be a part): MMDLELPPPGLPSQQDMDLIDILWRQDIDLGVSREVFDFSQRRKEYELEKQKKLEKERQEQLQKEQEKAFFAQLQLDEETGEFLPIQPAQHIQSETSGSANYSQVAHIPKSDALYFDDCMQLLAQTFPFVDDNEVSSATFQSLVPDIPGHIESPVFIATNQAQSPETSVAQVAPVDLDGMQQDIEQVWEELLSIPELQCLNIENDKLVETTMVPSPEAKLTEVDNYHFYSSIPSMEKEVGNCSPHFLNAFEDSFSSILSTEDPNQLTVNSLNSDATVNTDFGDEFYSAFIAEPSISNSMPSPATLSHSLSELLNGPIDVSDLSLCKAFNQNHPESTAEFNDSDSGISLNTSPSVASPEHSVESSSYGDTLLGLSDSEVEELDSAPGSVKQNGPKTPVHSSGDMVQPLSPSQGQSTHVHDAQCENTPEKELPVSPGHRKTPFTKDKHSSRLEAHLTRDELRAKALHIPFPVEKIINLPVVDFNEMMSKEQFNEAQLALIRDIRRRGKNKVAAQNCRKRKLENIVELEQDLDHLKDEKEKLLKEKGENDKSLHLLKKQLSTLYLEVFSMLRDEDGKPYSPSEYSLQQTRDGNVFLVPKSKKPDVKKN
# Sequence (Q14145 whole entry, the tested form may be a part): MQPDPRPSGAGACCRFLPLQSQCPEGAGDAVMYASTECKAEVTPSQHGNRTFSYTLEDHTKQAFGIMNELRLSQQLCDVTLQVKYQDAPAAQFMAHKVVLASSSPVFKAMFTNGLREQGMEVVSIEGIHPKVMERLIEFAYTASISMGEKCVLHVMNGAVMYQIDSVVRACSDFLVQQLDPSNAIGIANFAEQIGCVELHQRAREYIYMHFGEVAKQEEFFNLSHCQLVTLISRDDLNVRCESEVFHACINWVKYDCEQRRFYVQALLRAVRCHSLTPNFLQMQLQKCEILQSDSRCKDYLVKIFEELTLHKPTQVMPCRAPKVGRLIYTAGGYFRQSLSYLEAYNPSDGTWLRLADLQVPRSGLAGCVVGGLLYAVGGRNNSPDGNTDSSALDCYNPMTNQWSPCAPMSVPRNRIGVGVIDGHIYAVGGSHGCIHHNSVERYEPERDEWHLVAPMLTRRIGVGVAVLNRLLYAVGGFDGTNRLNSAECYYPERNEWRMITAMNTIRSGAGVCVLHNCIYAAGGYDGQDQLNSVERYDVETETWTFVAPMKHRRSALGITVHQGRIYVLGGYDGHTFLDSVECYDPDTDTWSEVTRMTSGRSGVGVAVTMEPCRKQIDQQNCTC
# ASSAY_NOTES: Inhibition of kelch domain of Keap1 (unknown origin) interaction to high affinity ETGE motif from Nrf2 by fluorescence polarization assay
# Type: protein assay

- SMILES_TEXT: "O=[N+]([O-])c1cccc(-c2cn(-c3cccc(Cl)c3)nn2)c1"
  UNIT_TEXT: "µM"
  EC50: 8.8
- SMILES_TEXT: "CCOc1cccc(-n2cc(-c3cccc([N+](=O)[O-])c3)nn2)c1"
  UNIT_TEXT: "µM"
  EC50: 11.3
- SMILES_TEXT: "CC(C)(C)c1cccc(-n2cc(-c3cccc([N+](=O)[O-])c3)nn2)c1"
  UNIT_TEXT: "µM"
  EC50: 37.8
- SMILES_TEXT: "O=[N+]([O-])c1cccc(-c2cn(-c3ccccc3)nn2)c1"
  UNIT_TEXT: "µM"
  EC50: 20.6
- SMILES_TEXT: "COc1cccc(-n2cc(-c3cccc([N+](=O)[O-])c3)nn2)c1"
  UNIT_TEXT: "µM"
  EC50: 15
- SMILES_TEXT: "CSc1cccc(-n2cc(-c3cccc([N+](=O)[O-])c3)nn2)c1"
  UNIT_TEXT: "µM"
  EC50: 38.5
- SMILES_TEXT: "O=[N+]([O-])c1cccc(-c2cn(-c3cccc(C(F)(F)F)c3)nn2)c1"
  UNIT_TEXT: "µM"
  EC50: 22.6
- SMILES_TEXT: "Cc1cccc(-n2cc(-c3cccc([N+](=O)[O-])c3)nn2)c1"
  UNIT_TEXT: "µM"
  EC50: 10
- SMILES_TEXT: "O=[N+]([O-])c1cccc(-c2cn(-c3ccc4c(c3)OCO4)nn2)c1"
  UNIT_TEXT: "µM"
  EC50: 15
- SMILES_TEXT: "O=[N+]([O-])c1cccc(-c2cn(-c3cccc(Br)c3)nn2)c1"
  UNIT_TEXT: "µM"
  EC50: 24.5
- SMILES_TEXT: "CN(C)c1cccc(-n2cc(-c3cccc([N+](=O)[O-])c3)nn2)c1"
  UNIT_TEXT: "µM"
  EC50: 12.7
